- tested_system: NLRP3 (Homo sapiens, UniProt Q96P20)
- Sequence (Q96P20 whole entry): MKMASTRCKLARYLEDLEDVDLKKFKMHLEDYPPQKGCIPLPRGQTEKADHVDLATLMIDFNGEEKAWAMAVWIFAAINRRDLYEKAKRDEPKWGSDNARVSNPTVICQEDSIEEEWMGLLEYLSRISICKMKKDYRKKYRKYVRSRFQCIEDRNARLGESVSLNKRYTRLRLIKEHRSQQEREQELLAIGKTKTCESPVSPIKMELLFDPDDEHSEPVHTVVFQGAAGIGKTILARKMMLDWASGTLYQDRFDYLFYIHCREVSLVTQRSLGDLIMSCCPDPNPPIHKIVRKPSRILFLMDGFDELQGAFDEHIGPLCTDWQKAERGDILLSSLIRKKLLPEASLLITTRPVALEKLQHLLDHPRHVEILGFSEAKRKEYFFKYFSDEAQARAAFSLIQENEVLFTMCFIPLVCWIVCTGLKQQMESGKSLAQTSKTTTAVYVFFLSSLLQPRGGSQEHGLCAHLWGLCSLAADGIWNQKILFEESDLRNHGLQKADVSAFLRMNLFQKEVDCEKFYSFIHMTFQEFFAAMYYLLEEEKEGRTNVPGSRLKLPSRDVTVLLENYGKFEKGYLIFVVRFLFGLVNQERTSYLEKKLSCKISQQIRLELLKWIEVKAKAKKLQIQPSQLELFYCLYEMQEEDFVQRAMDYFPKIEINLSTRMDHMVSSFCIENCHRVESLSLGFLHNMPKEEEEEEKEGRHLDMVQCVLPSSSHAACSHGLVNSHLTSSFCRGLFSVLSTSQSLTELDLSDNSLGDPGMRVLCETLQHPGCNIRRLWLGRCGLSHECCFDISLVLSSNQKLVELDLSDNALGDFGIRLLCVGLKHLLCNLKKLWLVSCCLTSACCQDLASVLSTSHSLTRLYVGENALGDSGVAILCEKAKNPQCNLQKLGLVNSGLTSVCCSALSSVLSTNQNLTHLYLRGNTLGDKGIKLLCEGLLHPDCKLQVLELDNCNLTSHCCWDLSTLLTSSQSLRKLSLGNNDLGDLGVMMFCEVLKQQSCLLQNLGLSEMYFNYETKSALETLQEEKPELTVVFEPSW
- assay_explanation: Measurement of IL-1β production (NLRP3 hIL1β EC50), PMA-differentiated THP-1 cells
- cond: human IL-1β production; assayed using one or more of the described procedures
# Lookup of reported pEC50 keyed by entry
Scale for pEC50: -log10 of concentration given in mol/L; no unit attached.

molecule: Nc1nc2cc(-c3cc[nH]n3)ccc2c2[nH]c(C[C@@H]3CCCN3)nc12
pEC50: 5.92

molecule: N#CC1(C(=O)N2CC[C@H](c3nc4c(N)nc5cc(-c6cc[nH]n6)ccc5c4[nH]3)C2)CC1
pEC50: 5.30

molecule: N#CC1(C(=O)N2CCC[C@@H](c3nc4c(N)nc5cc(-c6cc[nH]n6)ccc5c4[nH]3)C2)CCC1
pEC50: 5.70

**Q:** Print NLRP3 (Homo sapiens, UniProt Q96P20) pEC50 for COCCC(=O)N1CCC[C@H]1Cc1nc2c(N)nc3cc(-c4cc[nH]n4)ccc3c2[nH]1 .
**A:** 5.22

**Q:** Print NLRP3 (Homo sapiens, UniProt Q96P20) pEC50 for Nc1nc2cc(-c3cc[nH]n3)ccc2c2[nH]c([C@@H]3CCCN(C(=O)C4CC4(F)F)C3)nc12 (stereo partly drawn) .
**A:** 5.18

**Q:** Print NLRP3 (Homo sapiens, UniProt Q96P20) pEC50 for Nc1nc2cc(-c3cc[nH]n3)ccc2c2[nH]c([C@H]3CCCN(C(=O)C4CC(F)(F)C4)C3)nc12 .
**A:** 5.60

**Q:** Print NLRP3 (Homo sapiens, UniProt Q96P20) pEC50 for CCn1c([C@H]2CCCN(C(=O)CC(C)C)C2)nc2c(N)nc3cc(-c4cc[nH]n4)ccc3c21 .
**A:** 6.68

**Q:** Print NLRP3 (Homo sapiens, UniProt Q96P20) pEC50 for CC(C)C(=O)N1CC[C@@H](c2nc3c(N)nc4cc(-c5cc[nH]n5)ccc4c3[nH]2)C1 .
**A:** 5.15
